All values here come from PubChem BioAssay AID504558.

// inhibition lookup, one value per entry
- assay info: EBV LMP1-driven NF-kappaB luciferase reporter inhibitors, primary screen, cell-based, luminescence, single point (AID 504558);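 also: 0% = neutral control wells and 100% = reference inhibitor control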
- condition set: LMP1-induced NF-kappaB luciferase reporter cells, at 12.5 µM, stronger effect = higher value
About 2,400 (0.69%) of roughly 350,000 compounds were called active. Shown is part of a subset that was picked to be rich in actives.
readout name: inhibition (%)

>>> test_result("Nc1ccc(C(=O)Nc2ccccc2N)cc1")
43.3
>>> test_result("CC(C)n1cnc2c(Nc3cccc(Cl)c3)nc(N(CCO)CCCO)nc21")
-2.02
>>> test_result("COc1ccc(CCNC(=O)C2CCCN2C(=O)Nc2ccccc2)cc1OC (stereo unspecified)")
-0.848
>>> test_result("CCOC(=O)c1cc(-c2sc(NC(=O)c3ccccc3)nc2C)n(-c2ccc(Br)cc2)n1")
-16.6
>>> test_result("Nc1nc(SCc2ccc([N+](=O)[O-])cc2)c2ncn(C3OC(CO)C(O)C3O)c2n1 (stereo unspecified)")
-5.79
>>> test_result("COc1ccc(C2=Nc3cc(C)ccc3OC2)cc1")
91.3
